Provide the reported IC50 of each item.
Target System: human TLR9 (Homo sapiens, UniProt Q9NR96)
Construct: host or cells: HEK-Blue cells (HEK293-derived reporter line)
Sequence (Q9NR96 26-1032): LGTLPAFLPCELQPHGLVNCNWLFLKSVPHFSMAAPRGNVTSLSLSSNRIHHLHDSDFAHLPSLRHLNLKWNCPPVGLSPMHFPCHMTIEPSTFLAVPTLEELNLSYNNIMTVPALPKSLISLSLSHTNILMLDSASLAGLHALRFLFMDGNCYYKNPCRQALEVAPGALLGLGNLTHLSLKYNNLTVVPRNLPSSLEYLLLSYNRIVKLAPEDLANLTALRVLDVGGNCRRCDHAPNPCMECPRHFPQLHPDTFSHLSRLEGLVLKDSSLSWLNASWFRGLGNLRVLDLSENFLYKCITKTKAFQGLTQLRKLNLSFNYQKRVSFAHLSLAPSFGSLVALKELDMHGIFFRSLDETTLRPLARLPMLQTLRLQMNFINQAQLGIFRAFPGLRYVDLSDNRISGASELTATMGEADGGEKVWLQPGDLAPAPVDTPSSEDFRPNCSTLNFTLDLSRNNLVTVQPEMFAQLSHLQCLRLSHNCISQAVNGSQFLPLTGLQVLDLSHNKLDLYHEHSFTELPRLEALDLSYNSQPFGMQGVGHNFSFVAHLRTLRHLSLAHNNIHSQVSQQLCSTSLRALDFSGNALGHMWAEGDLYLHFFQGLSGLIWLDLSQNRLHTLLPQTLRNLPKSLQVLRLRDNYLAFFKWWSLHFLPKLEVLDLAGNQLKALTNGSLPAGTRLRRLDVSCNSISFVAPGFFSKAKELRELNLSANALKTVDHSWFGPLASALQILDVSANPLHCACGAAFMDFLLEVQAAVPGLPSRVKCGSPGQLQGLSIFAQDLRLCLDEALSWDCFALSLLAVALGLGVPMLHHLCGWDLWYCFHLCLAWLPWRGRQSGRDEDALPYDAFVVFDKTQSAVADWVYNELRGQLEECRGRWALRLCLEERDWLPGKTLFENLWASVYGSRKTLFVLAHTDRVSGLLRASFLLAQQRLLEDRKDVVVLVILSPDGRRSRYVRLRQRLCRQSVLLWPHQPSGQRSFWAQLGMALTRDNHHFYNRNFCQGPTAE
Procedure Details: TLR9 inhibition reporter assay (HEK-Blue cells, secreted embryonic alkaline phosphatase reporter)
Format: cell-based
Cond: HEK-Blue human TLR9 reporter cells
Answers are plain numbers, in nM.

Guide cases for IC50, answers given:
Cn1c(-c2ccc(S(C)(=O)=O)cc2)nc2c(F)cc(C3CCN(C4CC5CCC(C4)N5C4CCC4)CC3)cc21 (single isomer, unassigned) [Example 293] : 11
CC(C)CN1CCCC(N2CCC(c3ccc4nc(-c5ccc(S(C)(=O)=O)cc5)n(C)c4c3F)CC2)CC1 (centres unmarked) [Example 311] : 72
COc1cc(-c2nc3c(C)cc(C4CCN(C5CCN(CC(C)C)CC5)CC4)cc3n2C)cn2ncnc12 : 16
Cn1c(-c2ccc(S(C)(=O)=O)cc2)nc2ccc(C3CCN(C4CCCN(C5COC5)CC4)CC3)c(F)c21 (centres unmarked) [Example 315] : 150
Cc1cc(C2CCN(C3CC4CCC(C3)N4CC3CC3)CC2)cc2[nH]c(-c3ccc(S(C)(=O)=O)c(F)c3)nc12 (centres unmarked) [Example 351] : 48
CS(=O)(=O)c1ccc(-c2nc3c(F)cc(C4CCN(C5CC6CCC(C5)N6C5CCOCC5)CC4)cc3n2C2CC2)cc1 (centres unmarked) [Example 329] : 28
Cc1cc(C2CCN(C3CC4CCC(C3)N4CC3CC3)CC2)cc2[nH]c(-c3ccc(S(C)(=O)=O)cc3)nc12 (centres unmarked) [Example 335] : 130
Cc1cc(C2CCN(C3CC4CCC(C3)N4CC3CC3)CC2)cc2[nH]c(-c3ccc(S(C)(=O)=O)c(F)c3)nc12 (centres unmarked) [Example 352] : 26
Cn1c(-c2ccc(S(C)(=O)=O)cc2)nc2ccc(C3CCN(C4CCCN(C5COC5)CC4)CC3)c(F)c21 (centres unmarked) [Example 314] : 190
Cc1cc(C2CCN(C3CC4CCC(C3)N4C3CCC3)CC2)cc2[nH]c(-c3ccc(S(C)(=O)=O)c(F)c3)nc12 (centres unmarked) [Example 350] : 55

Could I get IC50 for every one of these entries?
1. Cc1cc(C2CCN(C3CCCN(C4COC4)CC3)CC2)cc2c1nc(-c1ccc(S(C)(=O)=O)cc1)n2C (centres unmarked) [Example 304]
2. COc1cc(-c2nc3c(C)cc(C4CCN(C5CC6CCC(C5)N6C5CC5)CC4)cc3n2C)cn2ncnc12 (centres unmarked)
3. Cc1cc(C2CCN(C3CC4CCC(C3)N4C3CC3)CC2)cc2c1nc(-c1ccc(S(C)(=O)=O)c(F)c1)n2C (centres unmarked)
4. CS(=O)(=O)c1ccc(-c2nc3c(F)cc(C4CCN(C5CCN(C6CCOCC6)CC5)CC4)cc3n2C2CC2)cc1

1: 180; 2: 85; 3: 130; 4: 36
